Tested on: NCI-H460 tumor-bearing mice (lung cancer)
Assay: Biodistribution: lutetium accumulation in tumor, plasma and healthy tissues by ICP-MS
Assay type: in vivo
Settings: 0.5 mg/kg lutetium conjugate; kidney; 72 h
Response field label takes t when % ID/g uptake, Kidney, 72 h is strictly below 3 % ID/g and f in all other cases.

The following molecules have reported results that may help.
molecule	assigned class
CCNC(=O)c1nnc(-c2cc(C(C)C)c(O)cc2O)n1-c1ccc(CN2CCN(C(=O)CCNC(=O)[C@@H](CCC(=O)N3CCN(Cc4ccc(-n5c(C(=O)NCC)nnc5-c5cc(C(C)C)c(O)cc5O)cc4)CC3)NC(=O)CCNC(=O)[C@@H](CCC(=O)O)NC(=O)[C@@H](CCC(=O)O)NC(=O)[C@@H](CCC(=O)O)NC(=O)COCCOCCNC(=O)CNC(=O)[C@H](CCCCN)NC(=O)CNC(=O)CC[C@H](C(=O)O)N3CCN4CCN5CCN(CC3)CC(=O)[O][Lu]([O]C(=O)C5)[O]C(=O)C4)CC2)cc1 [T9]	t
CCNC(=O)c1nnc(-c2cc(C(C)C)c(O)cc2O)n1-c1ccc2c(ccn2CCC2CCN(C(=O)CC[C@H](NC(=O)CC[C@H](C(=O)O)N3CCN4CCN5CCN(CC3)CC(=O)[O][Lu]([O]C(=O)C5)[O]C(=O)C4)C(=O)N3CCC(CCn4ccc5cc(-n6c(C(=O)NCC)nnc6-c6cc(C(C)C)c(O)cc6O)ccc54)CC3)CC2)c1 [T10]	f
CCNC(=O)c1nnc(-c2cc(C(C)C)c(O)cc2O)n1-c1ccc(OC2CCN(C(=O)CCNC(=O)[C@@H](CCC(=O)N3CCC(Oc4ccc(-n5c(C(=O)NCC)nnc5-c5cc(C(C)C)c(O)cc5O)cc4)CC3)NC(=O)CC[C@H](C(=O)O)N3CCN4CCN5CCN(CC3)CC(=O)[O][Lu]([O]C(=O)C5)[O]C(=O)C4)CC2)cc1 [T6]	t
CCNC(=O)c1nnc(-c2cc(C(C)C)c(O)cc2O)n1-c1ccc(OC2CCN(C(=O)CCNC(=O)[C@@H](CCC(=O)O)NC(=O)[C@@H](CCC(=O)O)NC(=O)[C@@H](CCC(=O)O)NC(=O)COCCOCCNC(=O)[C@H](CCCCNC(=O)CC[C@H](C(=O)O)N3CCN4CCN5CCN(CC3)CC(=O)[O][Lu]([O]C(=O)C5)[O]C(=O)C4)NC(=O)CCCc3ccc(I)cc3)CC2)cc1 [T11]	f

Problem: Does the reported % ID/g uptake, Kidney, 72 h of the following molecule sit strictly below 3 % ID/g? CCNC(=O)c1nnc(-c2cc(C(C)C)c(O)cc2O)n1-c1ccc(CN2CCN(C(=O)CCNC(=O)[C@@H](CCC(=O)N3CCN(Cc4ccc(-n5c(C(=O)NCC)nnc5-c5cc(C(C)C)c(O)cc5O)cc4)CC3)NC(=O)CCNC(=O)[C@@H](CCC(=O)O)NC(=O)[C@@H](CCC(=O)O)NC(=O)[C@@H](CCC(=O)O)NC(=O)COCCOCCNC(=O)[C@H](Cc3ccccc3)NC(=O)CNC(=O)CNC(=O)CC[C@H](C(=O)O)N3CCN4CCN5CCN(CC3)CC(=O)[O][Lu]([O]C(=O)C5)[O]C(=O)C4)CC2)cc1 [T8]
Result: t

Problem: Does the reported % ID/g uptake, Kidney, 72 h of the following molecule sit strictly below 3 % ID/g? CCNC(=O)c1nnc(-c2cc(C(C)C)c(O)cc2O)n1-c1ccc2c(ccn2CCC2CCN(C(=O)CCNC(=O)[C@@H](CCC(=O)O)NC(=O)[C@@H](CCC(=O)O)NC(=O)[C@@H](CCC(=O)O)NC(=O)COCCOCCNC(=O)[C@H](CCCCNC(=O)CC[C@H](C(=O)O)N3CCN4CCN5CCN(CC3)CC(=O)[O][Lu]([O]C(=O)C5)[O]C(=O)C4)NC(=O)CCCc3ccc(I)cc3)CC2)c1 [T7]
Result: f

Problem: Does the reported % ID/g uptake, Kidney, 72 h of the following molecule sit strictly below 3 % ID/g? CCNC(=O)c1nnc(-c2cc(C(C)C)c(O)cc2O)n1-c1ccc(CN2CCN(C(=O)CC[C@H](NC(=O)CCNC(=O)[C@@H](CCC(=O)O)NC(=O)[C@@H](CCC(=O)O)NC(=O)[C@@H](CCC(=O)O)NC(=O)COCCOCCNC(=O)CC[C@H](C(=O)O)N3CCN4CCN5CCN(CC3)CC(=O)[O][Lu]([O]C(=O)C5)[O]C(=O)C4)C(=O)N3CCN(Cc4ccc(-n5c(C(=O)NCC)nnc5-c5cc(C(C)C)c(O)cc5O)cc4)CC3)CC2)cc1 [T5]
Result: t

Problem: Does the reported % ID/g uptake, Kidney, 72 h of the following molecule sit strictly below 3 % ID/g? CCNC(=O)c1nnc(-c2cc(C(C)C)c(O)cc2O)n1-c1ccc(OC2CCN(C(=O)CCNC(=O)[C@@H](CCC(=O)N3CCC(Oc4ccc(-n5c(C(=O)NCC)nnc5-c5cc(C(C)C)c(O)cc5O)cc4)CC3)NC(=O)CCNC(=O)[C@@H](CCC(=O)O)NC(=O)[C@@H](CCC(=O)O)NC(=O)[C@@H](CCC(=O)O)NC(=O)COCCOCCNC(=O)[C@H](CCCCNC(=O)CC[C@H](C(=O)O)N(CC)CCN3CCN4CCN(C)CC(=O)[O][Lu]([O]C(=O)C4)[O]C(=O)C3)NC(=O)CCCc3ccc(I)cc3)CC2)cc1 [T12]
Result: f

Problem: Does the reported % ID/g uptake, Kidney, 72 h of the following molecule sit strictly below 3 % ID/g? CCNC(=O)c1nnc(-c2cc(C(C)C)c(O)cc2O)n1-c1ccc(CN2CCN(C(=O)CCNC(=O)[C@@H](CCC(=O)N3CCN(Cc4ccc(-n5c(C(=O)NCC)nnc5-c5cc(C(C)C)c(O)cc5O)cc4)CC3)NC(=O)CCNC(=O)[C@@H](CCC(=O)O)NC(=O)[C@@H](CCC(=O)O)NC(=O)[C@@H](CCC(=O)O)NC(=O)COCCOCCNC(=O)CC[C@H](C(=O)O)N3CCN4CCN5CCN(CC3)CC(=O)[O][Lu]([O]C(=O)C5)[O]C(=O)C4)CC2)cc1 [T4]
Result: t
